- Tgt: Translocator protein (Rattus norvegicus)
- Sequence (P16257 whole entry, looked up): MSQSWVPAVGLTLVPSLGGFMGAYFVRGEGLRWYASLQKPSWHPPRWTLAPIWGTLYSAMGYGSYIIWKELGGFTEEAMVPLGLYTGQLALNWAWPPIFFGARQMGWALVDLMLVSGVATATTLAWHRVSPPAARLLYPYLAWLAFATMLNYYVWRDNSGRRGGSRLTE
Observation type: Kd

>>> result("CN1CCN=C(c2ccccc2)c2cc(Cl)ccc21")
"> 0.01 µM"
